Form: system (Sodium-dependent serotonin transporter (Homo sapiens)), quantity (log10 of Ki), values below.
Scale: decimal log of Ki, Ki in nM.

// worked examples, log10 of Ki included
{"molecule": "CN(C)C[C@@H]1C2CCC(C2)[C@H]1c1ccc2ccccc2c1 (stereo partly drawn)", "target-or-test-system": "Sodium-dependent serotonin transporter (Homo sapiens)", "property-measured": "log10 of Ki", "reported-result": 0.76}
{"molecule": "CN(C)CC1C2CCC(C2)C1c1ccc2ccccc2c1 (stereo not drawn)", "target-or-test-system": "Sodium-dependent serotonin transporter (Homo sapiens)", "property-measured": "log10 of Ki", "reported-result": 0.45}
{"molecule": "CN(C)C[C@H]1C2CCC(C2)[C@@H]1c1ccc2cc(F)ccc2c1 (stereo partly drawn)", "target-or-test-system": "Sodium-dependent serotonin transporter (Homo sapiens)", "property-measured": "log10 of Ki", "reported-result": 0.41}
{"molecule": "COc1ccc2cc([C@H]3C4CCC(C4)[C@@H]3CN(C)C)ccc2c1 (stereo partly drawn)", "target-or-test-system": "Sodium-dependent serotonin transporter (Homo sapiens)", "property-measured": "log10 of Ki", "reported-result": 1.40}
{"molecule": "CN(C)C[C@H]1C2CCC(C2)[C@@H]1c1ccc2cc(O)ccc2c1 (stereo partly drawn)", "target-or-test-system": "Sodium-dependent serotonin transporter (Homo sapiens)", "property-measured": "log10 of Ki", "reported-result": 1.67}
{"molecule": "CNC[C@H]1C2CCC(C2)[C@@H]1c1ccc2cc(F)ccc2c1 (stereo partly drawn)", "target-or-test-system": "Sodium-dependent serotonin transporter (Homo sapiens)", "property-measured": "log10 of Ki", "reported-result": 0.64}
{"molecule": "CN(C)C[C@H]1C2CCC(CC2)[C@@H]1c1cccc(Cl)c1", "target-or-test-system": "Sodium-dependent serotonin transporter (Homo sapiens)", "property-measured": "log10 of Ki", "reported-result": 1.40}
{"molecule": "CN(C)CC1C2CCC(C2)C1c1cccc2ccccc12 (stereo not drawn)", "target-or-test-system": "Sodium-dependent serotonin transporter (Homo sapiens)", "property-measured": "log10 of Ki", "reported-result": 1.72}

Provide reported log10 of Ki for each item, in the same order as listed.
1. CNC[C@H]1C2CCC(C2)[C@@H]1c1ccc2cc(OC)ccc2c1 (stereo partly drawn)
2. CN(C)C[C@H]1C2CCC(C2)[C@@H]1c1ccc2ccccc2c1 (stereo partly drawn)
3. CN(C)C[C@@H]1C2CCC(CC2)[C@@H]1c1ccc(Cl)c(Cl)c1
4. CNC[C@H]1C2CCC(C2)[C@@H]1c1ccc2ccccc2c1 (stereo partly drawn)

[1.08, 0.36, 1.76, 0.56]

Provide measured log10 of Ki value, entry: CNCC1C2CCC(C2)C1c1ccc2ccccc2c1 (stereo not drawn)
0.69

----------
# target-or-test-system: Sodium-dependent noradrenaline transporter (Homo sapiens, UniProt P23975)
# Sequence (P23975 whole entry): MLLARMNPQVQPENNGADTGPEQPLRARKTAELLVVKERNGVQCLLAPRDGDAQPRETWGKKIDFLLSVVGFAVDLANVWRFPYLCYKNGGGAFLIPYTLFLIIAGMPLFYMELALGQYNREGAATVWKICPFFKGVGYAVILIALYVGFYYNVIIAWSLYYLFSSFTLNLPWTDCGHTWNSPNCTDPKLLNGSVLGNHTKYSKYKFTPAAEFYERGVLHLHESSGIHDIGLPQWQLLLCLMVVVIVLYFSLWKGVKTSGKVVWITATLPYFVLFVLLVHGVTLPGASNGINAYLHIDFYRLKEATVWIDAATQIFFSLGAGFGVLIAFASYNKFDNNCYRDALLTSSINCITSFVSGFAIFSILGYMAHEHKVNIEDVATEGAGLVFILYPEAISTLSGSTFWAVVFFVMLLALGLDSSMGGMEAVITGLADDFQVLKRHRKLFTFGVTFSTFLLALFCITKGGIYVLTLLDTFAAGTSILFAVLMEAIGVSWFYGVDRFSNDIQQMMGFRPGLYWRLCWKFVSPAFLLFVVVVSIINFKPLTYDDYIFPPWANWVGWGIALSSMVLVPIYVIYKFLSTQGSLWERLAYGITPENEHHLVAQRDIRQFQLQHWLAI
# protocol-summary: Compound was tested for its ability to displace […] from norepinephrine transporter
property-measured: pKi
Give bare numbers, as −log10 of the molar value.

Provide measured pKi value, entry: CN(C)C[C@@H]1C2CCC(CC2)[C@@H]1c1ccc(Cl)c(Cl)c1
7.36

----------
# target-or-test-system: Sodium-dependent noradrenaline transporter (Homo sapiens)
# protocol-summary: In vitro inhibition of [3H]NE re-uptake into synaptosome
property-measured: IC50 (nM)
Give bare numbers, in nM.

Please tell me the measured IC50 for CN(C)C[C@@H]1C2CCC(CC2)[C@@H]1c1ccc(Cl)c(Cl)c1 ; system: Sodium-dependent noradrenaline transporter (Homo sapiens).
22

----------
# target-or-test-system: Sodium-dependent noradrenaline transporter (Homo sapiens)
# protocol-summary: Displacement of [3H]-Nisoxetine from norepinephrine transporter
Could you please report measured pKi for the items listed next?
Numbers only, as −log10 of the molar value.

// worked examples, pKi included
{"molecule": "COc1ccc2cc([C@H]3C4CCC(C4)[C@@H]3CN(C)C)ccc2c1 (stereo not given in full)", "target-or-test-system": "Sodium-dependent noradrenaline transporter (Homo sapiens)", "pKi": 7.17}
{"molecule": "CN(C)C[C@H]1C2CCC(C2)[C@@H]1c1ccc2cc(O)ccc2c1 (stereo not given in full)", "target-or-test-system": "Sodium-dependent noradrenaline transporter (Homo sapiens)", "pKi": 7.30}
{"molecule": "CNC[C@H]1C2CCC(C2)[C@@H]1c1ccc2cc(OC)ccc2c1 (stereo not given in full)", "target-or-test-system": "Sodium-dependent noradrenaline transporter (Homo sapiens)", "pKi": 6.92}
{"molecule": "CNC[C@H]1C2CCC(C2)[C@@H]1c1ccc2cc(F)ccc2c1 (stereo not given in full)", "target-or-test-system": "Sodium-dependent noradrenaline transporter (Homo sapiens)", "pKi": 6.50}

Provide measured pKi value, entry: CN(C)C[C@H]1C2CCC(C2)[C@@H]1c1ccc2cc(F)ccc2c1 (stereo not given in full)
6.41

----------
# target-or-test-system: UniProt Q01959
# protocol-summary: In vitro inhibition of DA re-uptake into synaptosome
property-measured: log10 IC50 (log10 of the value in nM)
Scale: decimal log of IC50, IC50 in nM.

// worked examples, log10 IC50 included
{"molecule": "CN(C)C[C@H]1C2CCC(C2)[C@@H]1c1ccc2ccccc2c1 (stereo partly drawn)", "property-measured": "log10 IC50", "reported-result": 1.88}
{"molecule": "CN(C)CC1C2CCC(C2)C1c1ccc2ccccc2c1 (stereo not drawn)", "property-measured": "log10 IC50", "reported-result": 1.98}
{"molecule": "CN(C)C[C@@H]1C2CCC(CC2)[C@@H]1c1ccc(Cl)c(Cl)c1", "property-measured": "log10 IC50", "reported-result": 1.45}
{"molecule": "CNC[C@H]1C2CCC(C2)[C@@H]1c1ccc2ccccc2c1 (stereo partly drawn)", "property-measured": "log10 IC50", "reported-result": 1.93}
{"molecule": "CN(C)C[C@@H]1C2CCC(C2)[C@H]1c1ccc2ccccc2c1 (stereo partly drawn)", "property-measured": "log10 IC50", "reported-result": 1.97}
{"molecule": "CN(C)CC1C2CCC(C2)C1c1cccc2ccccc12 (stereo not drawn)", "property-measured": "log10 IC50", "reported-result": 3.18}

Provide reported log10 IC50 for each item, in the same order as listed.
1. CNCC1C2CCC(C2)C1c1ccc2ccccc2c1 (stereo not drawn)
2. CN(C)C[C@H]1C2CCC(CC2)[C@@H]1c1cccc(Cl)c1

1.94
2.22

----------
Form: system (Sodium-dependent dopamine transporter (Homo sapiens, UniProt Q01959)), quantity (pKi), values below.
Give bare numbers, as −log10 of the molar value.

{"compound": "CN(C)C[C@@H]1C2CCC(CC2)[C@@H]1c1ccc(Cl)c(Cl)c1", "pKi": 8.14}
{"compound": "CN(C)C[C@H]1C2CCC(CC2)[C@@H]1c1cccc(Cl)c1", "pKi": 7.19}
{"compound": "CN(C)C[C@H]1C2CCC(C2)[C@@H]1c1ccc2cc(O)ccc2c1 (stereo partly drawn)", "pKi": 8.22}
{"compound": "CN(C)C[C@@H]1C2CCC(C2)[C@H]1c1ccc2ccccc2c1 (stereo partly drawn)", "pKi": 7.42}

Provide reported pKi for each item, in the same order as listed.
1. COc1ccc2cc([C@H]3C4CCC(C4)[C@@H]3CN(C)C)ccc2c1 (stereo partly drawn)
2. CNC[C@H]1C2CCC(C2)[C@@H]1c1ccc2cc(OC)ccc2c1 (stereo partly drawn)
3. CN(C)C[C@H]1C2CCC(C2)[C@@H]1c1ccc2ccccc2c1 (stereo partly drawn)
4. CNCC1C2CCC(C2)C1c1ccc2ccccc2c1 (stereo not drawn)
5. CNC[C@H]1C2CCC(C2)[C@@H]1c1ccc2ccccc2c1 (stereo partly drawn)
6. CNC[C@H]1C2CCC(C2)[C@@H]1c1ccc2cc(F)ccc2c1 (stereo partly drawn)
7. CN(C)C[C@H]1C2CCC(C2)[C@@H]1c1ccc2cc(F)ccc2c1 (stereo partly drawn)
8. CN(C)CC1C2CCC(C2)C1c1cccc2ccccc12 (stereo not drawn)

1: 7.19; 2: 7.22; 3: 7.60; 4: 7.60; 5: 7.39; 6: 7.14; 7: 7.30; 8: 6.37

Provide measured pKi value, entry: CN(C)CC1C2CCC(C2)C1c1ccc2ccccc2c1 (stereo not drawn)
7.74

----------
# target-or-test-system: Sodium-dependent serotonin transporter (Homo sapiens, UniProt P31645)
# Sequence (P31645 whole entry): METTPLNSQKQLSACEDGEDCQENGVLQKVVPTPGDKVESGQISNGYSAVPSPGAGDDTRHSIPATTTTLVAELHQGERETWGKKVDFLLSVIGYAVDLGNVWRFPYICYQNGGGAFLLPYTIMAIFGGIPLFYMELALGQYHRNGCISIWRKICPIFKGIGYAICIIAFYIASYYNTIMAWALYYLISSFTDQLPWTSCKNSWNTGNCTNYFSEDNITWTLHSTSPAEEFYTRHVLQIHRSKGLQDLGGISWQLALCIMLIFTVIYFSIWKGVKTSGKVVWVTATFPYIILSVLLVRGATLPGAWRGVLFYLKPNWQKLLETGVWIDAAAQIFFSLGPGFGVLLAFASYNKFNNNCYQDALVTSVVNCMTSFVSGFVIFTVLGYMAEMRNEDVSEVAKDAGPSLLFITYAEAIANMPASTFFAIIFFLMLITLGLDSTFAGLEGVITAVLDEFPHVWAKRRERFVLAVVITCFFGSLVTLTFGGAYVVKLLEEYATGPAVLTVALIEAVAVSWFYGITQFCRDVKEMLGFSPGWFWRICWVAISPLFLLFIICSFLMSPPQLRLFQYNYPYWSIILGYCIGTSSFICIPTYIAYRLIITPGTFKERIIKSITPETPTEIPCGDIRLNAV
# protocol-summary: In vitro ability of compound to inhibit 5-HT re-uptake of radiolabeled [3H]-tritium transmitter into synaptosome
property-measured: log10 IC50 (log10 of the value in nM)
Scale: decimal log of IC50, IC50 in nM.

{"molecule": "CN(C)C[C@H]1C2CCC(CC2)[C@@H]1c1cccc(Cl)c1", "log10 IC50": 2.48}
{"molecule": "CN(C)CC1C2CCC(C2)C1c1cccc2ccccc12 (stereo not drawn)", "log10 IC50": 1.97}
{"molecule": "CN(C)C[C@@H]1C2CCC(C2)[C@H]1c1ccc2ccccc2c1 (stereo partly drawn)", "log10 IC50": 1.30}
{"molecule": "CN(C)C[C@H]1C2CCC(C2)[C@@H]1c1ccc2ccccc2c1 (stereo partly drawn)", "log10 IC50": 0.95}
{"molecule": "CNCC1C2CCC(C2)C1c1ccc2ccccc2c1 (stereo not drawn)", "log10 IC50": 1.70}

Provide reported log10 IC50 for each item, in the same order as listed.
1. CN(C)CC1C2CCC(C2)C1c1ccc2ccccc2c1 (stereo not drawn)
2. CNC[C@H]1C2CCC(C2)[C@@H]1c1ccc2ccccc2c1 (stereo partly drawn)
3. CN(C)C[C@@H]1C2CCC(CC2)[C@@H]1c1ccc(Cl)c(Cl)c1

1: 1.00; 2: 0.95; 3: 2.43

src = ChEMBL document CHEMBL1136239
